tested on: UACC-257 melanoma; assay: NCI-60 one-dose screen, 48 h; conditions: 10 µM unless noted
The panel holds about 83,000 compounds, 20% with a hit somewhere; the sample as a whole holds those more often. Active and inactive are the calls of the source. How the source made its calls: active means growth percent below 10; inactive means the rest.
Outcome codes: active, inactive

molecule: O=C(COc1ccc(/C=C2\C(=O)Nc3ccc(F)cc32)cc1)Nc1ccccc1
testedTarget: UACC-257 melanoma
classification: inactive
//
molecule: CCN(CC)CCOc1ccc(C(=C(C)c2ccc(OC)cc2)c2ccc(OCCN(CC)CC)cc2)cc1
testedTarget: UACC-257 melanoma
classification: active
//
molecule: COc1ccc(-c2cc(-c3ccc(N4CCOCC4)cc3)n3c(n2)nc2ccccc23)cc1OC
testedTarget: UACC-257 melanoma
classification: inactive
//
molecule: O=C(CSc1nc2ccccc2c(=O)n1-c1ccccc1)N/N=C/c1ccc(Oc2ccc(Br)cc2)cc1
testedTarget: UACC-257 melanoma
classification: inactive
//
molecule: N#Cc1c(-c2cccs2)cc(-c2cnccn2)nc1SCC(=O)N/N=C/c1cccs1
testedTarget: UACC-257 melanoma
classification: inactive
//
molecule: Cn1c(SCC(=O)c2ccc(F)cc2)nc2ccccc2c1=O
testedTarget: UACC-257 melanoma
classification: inactive
//
molecule: COc1ccc(C(=NNS(=O)(=O)c2ccc(C)cc2)c2ccccc2)cc1OC
testedTarget: UACC-257 melanoma
classification: inactive
//
molecule: CCCC[n+]1ccc(SCC(=O)n2ccc3ccccc32)c2ccccc21
testedTarget: UACC-257 melanoma
classification: inactive
//
molecule: O=c1[nH][nH]c(-c2ccc(F)cc2)c1-c1nc2ccccc2s1
testedTarget: UACC-257 melanoma
classification: inactive
//
molecule: COc1ccc([C@H]2C(=O)N(c3cc(OC)c(OC)c(OC)c3)[C@@H]2c2ccc(OC)c(O)c2)cc1
testedTarget: UACC-257 melanoma
classification: inactive
//
molecule: CCc1cccc2c3c(sc12)C(c1ccc(F)cc1)C(C#N)=C(/N=C/c1ccc(Cl)cc1)O3 (centres undefined)
testedTarget: UACC-257 melanoma
classification: inactive
//
molecule: CC(=C(c1ccc(OCCN2CCCC2)cc1)c1ccc(OCCN2CCCC2)cc1)c1ccc(Cl)cc1
testedTarget: UACC-257 melanoma
classification: active
//
molecule: O=C1C(SCc2ccccc2)=C(Cl)CN1c1ccc(Cl)cc1
testedTarget: UACC-257 melanoma
classification: inactive
//
molecule: Cc1ccc2c(n1)C(=O)C(Cl)=C(Nc1cccc(C)c1C)C2=O
testedTarget: UACC-257 melanoma
classification: active
//
molecule: CN(C)S(=O)(=O)c1ccc(-c2nc(C(Cl)Cl)nc3cc(-c4ccc(F)cc4)nn23)cc1
testedTarget: UACC-257 melanoma
classification: inactive
//
molecule: Oc1ccc(-c2nc3ccc(/C(=N\N=C\c4ccc(Cl)cc4)c4ccccc4)cc3[nH]2)cc1
testedTarget: UACC-257 melanoma
classification: inactive
//
molecule: O=C1[C@H]2Cc3c([nH]c4ccccc34)[C@H](c3ccc(Br)cc3)N2C(=O)CN1C1CCN(CC2CCCCC2)CC1
testedTarget: UACC-257 melanoma
classification: inactive
//
molecule: Clc1ccc2c(N/N=C/c3c[nH]c4ccccc34)ccnc2c1
testedTarget: UACC-257 melanoma
classification: active
//
molecule: O=C(CSc1nc2ccccc2c(=O)n1CCc1ccccc1)Nc1ccc(S(=O)(=O)Nc2ccc(Cl)nn2)cc1
testedTarget: UACC-257 melanoma
classification: inactive
//
molecule: N#Cc1c(-c2cccs2)cc(-c2cnccn2)nc1SCC(=O)N/N=C/c1ccncc1
testedTarget: UACC-257 melanoma
classification: inactive
//
molecule: CCN(CC)CCOc1ccc(C(=C(C)Cc2ccc(OC)cc2)c2ccc(OCCN(CC)CC)cc2)cc1
testedTarget: UACC-257 melanoma
classification: inactive
//
molecule: Cc1[nH]c(C(=O)Nc2ccc(C(=O)NCC3CCNCC3)cc2OC(C)C)c(Cl)c1Cl
testedTarget: UACC-257 melanoma
classification: inactive
//
molecule: C=CCSC1=NC2C(N(CC)C(=O)N2CC)N1/N=C/C=C/c1ccccc1OC (centres undefined)
testedTarget: UACC-257 melanoma
classification: inactive
//
molecule: CN1CCN(c2ccc(Nc3nc(NCCNS(=O)(=O)c4ccc(Cl)cc4)c4sccc4n3)cc2)CC1
testedTarget: UACC-257 melanoma
classification: inactive
//
molecule: O=C1[C@@H]2Cc3c([nH]c4ccccc34)[C@@H](c3ccc(Cl)cc3)N2C(=O)CN1C1CCN(Cc2ccccc2)CC1
testedTarget: UACC-257 melanoma
classification: inactive
//
molecule: COc1ccc2sc(NC(=O)CCCCCCNC(=O)C(O)(O)C(F)(F)F)nc2c1
testedTarget: UACC-257 melanoma
classification: inactive
//
molecule: Cc1ccc(C(=O)CSc2nc3ccccc3c(=O)n2C)cc1
testedTarget: UACC-257 melanoma
classification: inactive
//
molecule: Cn1cc(-c2nnc(N)nc2-c2c[nH]c3ccc(F)cc23)c2cc(Br)ccc21
testedTarget: UACC-257 melanoma
classification: inactive
//
molecule: O=C(N/N=C/c1cc2ccccc2nc1Cl)c1cc(-c2nc3ccccc3[nH]2)nc2ccccc12
testedTarget: UACC-257 melanoma
classification: inactive
//
molecule: COc1ccc(/C=N/NC(=O)CSc2nc(-c3cnccn3)cc(-c3cccs3)c2C#N)cc1OC
testedTarget: UACC-257 melanoma
classification: inactive
//
molecule: COc1cc(C(=O)c2cc(C(C)=O)c3c(C)cccn23)cc(OC)c1OC
testedTarget: UACC-257 melanoma
classification: inactive
//
molecule: NS(=O)(=O)c1nnc(/N=C/c2c(O)[nH]c3ccccc23)s1
testedTarget: UACC-257 melanoma
classification: inactive
//
molecule: COCCOc1ccc2ncc(C#Cc3cncc(C(=O)Nc4ccc(CN5CCN(C)CC5)c(C(F)(F)F)c4)c3)n2n1
testedTarget: UACC-257 melanoma
classification: inactive
//
molecule: CCCCc1nc2c(N)nc3ccccc3c2n1Cc1cccc(CN)c1
testedTarget: UACC-257 melanoma
classification: active
//
molecule: Cc1ccc(CSC2=C(Cl)CN(c3ccc(Cl)cc3)C2=O)cc1
testedTarget: UACC-257 melanoma
classification: inactive
//
molecule: CN1CCN(c2ccc(Nc3nc(NCCCNS(=O)(=O)c4ccc(Cl)cc4)c4sccc4n3)cc2)CC1
testedTarget: UACC-257 melanoma
classification: active
//
molecule: O=C(N/N=C\c1ccc(F)cc1)c1ccc2nc(-c3ccc(Br)cc3)[nH]c2c1
testedTarget: UACC-257 melanoma
classification: inactive
//
molecule: CC1=C(C)C(=O)C(Nc2ccc3c(c2)OCO3)=C(Br)C1=O
testedTarget: UACC-257 melanoma
classification: inactive
//
molecule: C#CCOc1cccc(/C(N)=N/C(N)=N/c2nc3ccccc3s2)c1
testedTarget: UACC-257 melanoma
classification: inactive
